Tested on: OVCAR-3 ovarian
Experiment: NCI tumour cell line growth inhibition, 48 h
measured_quantity: TGI

Answered examples (5):
CC1=Nc2ccccc2OC(C)=C1N=Nc1ccc2nc(C)[nH]c2c1 ... > 100 µM
CC(C)c1cc2c(cc1S(=O)(=O)O)[C@@]1(C)CCC[C@@](C)(C(=O)O)C1CC2 (stereo partly specified) ... > 100 µM
CCC(=O)NC(Nc1cc(C)on1)(C(F)(F)F)C(F)(F)F ... > 100 µM
C#CCn1c(=O)c2ccccc2n(CC#C)c1=O ... > 10 µM
CC(C)(C)c1cc2c(O)c3cccc4c(=O)c5cccc6c5-c(c34)c2c(c1)c6=O ... > 100 µM

Now let's try a different one.
**Query** Under OVCAR-3 ovarian, report TGI for Cc1ccc(NC(=O)CC2Sc3ccccc3NC2=O)cc1C (stereo unspecified)
**Result** > 100 µM

----------
Test system: BT-549 breast
Experiment: NCI tumour cell line growth inhibition, 48 h; in the data active = GI50 below about 0.43 µM; inactive = the rest
Your response should consist of one outcome taken from 1.0 = active, 0.0 = inactive

CCN1C(=O)N(c2ccccc2)C2NC(=S)N(/N=C/C=C/c3ccccc3OC)C21 (configuration not stated) ... 1.0
O=C1CCCCN1c1ccccc1C#C/C=C\C#Cc1ccccc1C(F)(F)F ... 0.0
CCCOc1cc2ccccc2cc1C(=O)Nc1nc(N)c2c(ccc3nccc32)[nH]1 ... 1.0

**Query** Please indicate how the test categorized COc1cccc(-c2nc(-c3ccc(NC(=O)OC(C)C)cc3)[nH]c2-c2ccnc(Br)c2)c1 .
**Result** 0.0

**Query** Please indicate how the test categorized Cc1cc(I)cc(CN(CCCN(C)C)C(C)C)c1O .
**Result** 0.0

**Query** Please indicate how the test categorized COc1cccc(C(=O)NC(c2ccc(C)cc2)c2cc(Cl)c3cccnc3c2O)c1 (configuration not stated) .
**Result** 0.0

**Query** Please indicate how the test categorized COc1ccc(/C=N/NC(=O)c2cccc3cc[nH]c23)cc1O .
**Result** 0.0

----------
Test system: TK-10 renal
Experiment: NCI tumour cell line growth inhibition, 48 h
TGI for assorted compounds

Answered examples (5):
O=CNc1ccc2c(c1)C(=O)c1ccccc1-2 ... > 100 µM
O=S(=O)(c1ccccc1)c1cccc2c1NCCC2 ... > 100 µM
Cc1ccc(Oc2ccc(C)cc2N)cc1 ... > 100 µM
Cc1cc(Nc2ccc(S(=O)(=O)O)c3cc(S(=O)(=O)O)cc(S(=O)(=O)O)c23)c2ccccc2n1 ... > 100 µM
O=C(/C=C/c1ccc2c(c1)OCO2)c1ccc(O)cc1 ... 33.1 µM

Now let's try a different one.
**Query** Give TGI for the following compound: Nc1ncnc2c1[nH]c(=O)n2-c1ccccc1
**Result** > 100 µM

----------
Test system: BT-549 breast
Test: NCI tumour cell line growth inhibition, 48 h
measured_quantity: TGI

Answered examples (4):
CC1CN(C)c2ccccc2N=C1NN (stereo not given) ... > 100 µM
NC(N)=Nc1ccc(CC(N)NCC(=O)O)cc1 (stereo not given) ... > 25 µM
CC(=O)N(C(=O)CC(=O)N1N=C(c2ccccc2)C(N=Nc2ccccc2[N+](=O)[O-])C1=O)c1ccc(Cl)cc1 (stereo not given) ... > 10 µM
O=CNc1ccc2c(c1)C(=O)c1ccccc1-2 ... > 100 µM

Now let's try a different one.
**Query** Give TGI for the following compound: Cc1ccc(N(Cc2ccccc2)Cc2ccccc2)cc1
**Result** > 100 µM
